B1: SERPINB5 (parent)
chain: FPESETKECPFRVNKVCGAACSSK

Variants of: B1
Experiment: protein stability index of a GFP-peptide fusion (GPS, HEK-293T) (PSI 1-6); higher = more stable;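 further: lentivirally expressed fusions sorted by FACS into six bins by GFP to DsRed ratio, PSI derived from sequencing read proportions per bin multiplied by bin number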
Details: c terminus: a fixed tail appended
Classification field: enter t for protein stability index values not below 3, f for values below it.

Input sequence: FTESETKECPFRVNKVCGAACSSK [P2T]
Cat: f
--
Input sequence: FPESETKECPFRHNKVCGAACSSK [V13H]
Cat: t
--
Input sequence: FPESETKECPFRVNKVCGAACSIK [S23I]
Cat: f
--
Input sequence: FPESETHECPFRVNKVCGAACSSK [K7H]
Cat: t
--
Input sequence: FPESETKECPHRVNKVCGAACSSK [F11H]
Cat: t
--
Input sequence: FPESETKECPFRVNKVCGAACSEK [S23E]
Cat: t
--
Input sequence: FPESECKECPFRVNKVCGAACSSK [T6C]
Cat: f
--
Input sequence: FPESETKECPFRVNKVCGAARSSK [C21R]
Cat: f
--
Input sequence: FPESETKECPFRVNKVHGAACSSK [C17H]
Cat: f
--
Input sequence: FPESETKECPFRVNKVCGAKCSSK [A20K]
Cat: f
--
Input sequence: FPESETKECPFRVNKVCGAACHSK [S22H]
Cat: f
--
Input sequence: FPESETKECPFRVNKVCGAACSLK [S23L]
Cat: f
--
Input sequence: FPESETKECPFRVNKVWGAACSSK [C17W]
Cat: f
--
Input sequence: FPESETKEKPFRVNKVCGAACSSK [C9K]
Cat: t
--
Input sequence: FPESETFECPFRVNKVCGAACSSK [K7F]
Cat: f
--
Input sequence: FPESETKECPFRVNKVSGAACSSK [C17S]
Cat: t
--
Input sequence: FPESETKECPFRVNKVCGAFCSSK [A20F]
Cat: f
--
Input sequence: FPESETKRCPFRVNKVCGAACSSK [E8R]
Cat: f
--
Input sequence: FPESYTKECPFRVNKVCGAACSSK [E5Y]
Cat: f
--
Input sequence: FPESETKEEPFRVNKVCGAACSSK [C9E]
Cat: t
--
Input sequence: FPESETKECPFRVNIVCGAACSSK [K15I]
Cat: f
--
Input sequence: FPESETKECPFRVNKVDGAACSSK [C17D]
Cat: f
--
Input sequence: FPESETKECPFRANKVCGAACSSK [V13A]
Cat: t
--
Input sequence: FPESETKECPFRVNKVCGAAWSSK [C21W]
Cat: f
--
Input sequence: FPESETKECPFRVNKVCGAACNSK [S22N]
Cat: f
--
Input sequence: FPESETKECPFRVSKVCGAACSSK [N14S]
Cat: f
--
Input sequence: FPESETKECPFRVNKVCGAASSSK [C21S]
Cat: f
--
Input sequence: FPESETKECRFRVNKVCGAACSSK [P10R]
Cat: t
--
Input sequence: FPGSETKECPFRVNKVCGAACSSK [E3G]
Cat: f
--
Input sequence: NPESETKECPFRVNKVCGAACSSK [F1N]
Cat: t
--
Input sequence: FPESETKECPFRVNKVVGAACSSK [C17V]
Cat: f
--
Input sequence: QPESETKECPFRVNKVCGAACSSK [F1Q]
Cat: t
--
Input sequence: FPESETKECPFRVNKVCGAACSSR [K24R]
Cat: f
--
Input sequence: FPESETKECPFLVNKVCGAACSSK [R12L]
Cat: f
--
Input sequence: FPESETKECPFRKNKVCGAACSSK [V13K]
Cat: t
